Measurement Label: melting point (°C)
Give bare numbers, in °C.

>>> measured("Cl.O=C(CC1CSC(=NC2CCCCC2)N1C1CCCCC1)NCc1ccc(Cl)cc1 (centres unmarked)")
152
>>> measured("Br.CN1C(=NC2CCCCCC2)SCC1C(=O)Nc1ccc(C(C)(C)C)cc1 (centres unmarked)")
169.9

Note: attention shifts to another entry.
Query :: For CN1C(=NC2CCCCCC2)SCC1C(=O)Nc1cc(F)ccc1F (centres unmarked) [KHG24625] , write its melting point.
Result :: 184.2

----------
biological target: α1G T-type calcium channel (Homo sapiens, UniProt O43497); construct: host or cells: HEK293; assay: Assay for % inhibiting activity against T-type calcium channel using FDSS6000 (fluo-3 calcium imaging, KCl activation); assay type: cell-based; settings: HEK293, 10 μM; HEK293 cells stably expressing α1G T-type calcium channel and Kir2.1; compounds of the examples; read-out: FDSS (% inhibition)/10uM
Sequence (O43497 whole entry): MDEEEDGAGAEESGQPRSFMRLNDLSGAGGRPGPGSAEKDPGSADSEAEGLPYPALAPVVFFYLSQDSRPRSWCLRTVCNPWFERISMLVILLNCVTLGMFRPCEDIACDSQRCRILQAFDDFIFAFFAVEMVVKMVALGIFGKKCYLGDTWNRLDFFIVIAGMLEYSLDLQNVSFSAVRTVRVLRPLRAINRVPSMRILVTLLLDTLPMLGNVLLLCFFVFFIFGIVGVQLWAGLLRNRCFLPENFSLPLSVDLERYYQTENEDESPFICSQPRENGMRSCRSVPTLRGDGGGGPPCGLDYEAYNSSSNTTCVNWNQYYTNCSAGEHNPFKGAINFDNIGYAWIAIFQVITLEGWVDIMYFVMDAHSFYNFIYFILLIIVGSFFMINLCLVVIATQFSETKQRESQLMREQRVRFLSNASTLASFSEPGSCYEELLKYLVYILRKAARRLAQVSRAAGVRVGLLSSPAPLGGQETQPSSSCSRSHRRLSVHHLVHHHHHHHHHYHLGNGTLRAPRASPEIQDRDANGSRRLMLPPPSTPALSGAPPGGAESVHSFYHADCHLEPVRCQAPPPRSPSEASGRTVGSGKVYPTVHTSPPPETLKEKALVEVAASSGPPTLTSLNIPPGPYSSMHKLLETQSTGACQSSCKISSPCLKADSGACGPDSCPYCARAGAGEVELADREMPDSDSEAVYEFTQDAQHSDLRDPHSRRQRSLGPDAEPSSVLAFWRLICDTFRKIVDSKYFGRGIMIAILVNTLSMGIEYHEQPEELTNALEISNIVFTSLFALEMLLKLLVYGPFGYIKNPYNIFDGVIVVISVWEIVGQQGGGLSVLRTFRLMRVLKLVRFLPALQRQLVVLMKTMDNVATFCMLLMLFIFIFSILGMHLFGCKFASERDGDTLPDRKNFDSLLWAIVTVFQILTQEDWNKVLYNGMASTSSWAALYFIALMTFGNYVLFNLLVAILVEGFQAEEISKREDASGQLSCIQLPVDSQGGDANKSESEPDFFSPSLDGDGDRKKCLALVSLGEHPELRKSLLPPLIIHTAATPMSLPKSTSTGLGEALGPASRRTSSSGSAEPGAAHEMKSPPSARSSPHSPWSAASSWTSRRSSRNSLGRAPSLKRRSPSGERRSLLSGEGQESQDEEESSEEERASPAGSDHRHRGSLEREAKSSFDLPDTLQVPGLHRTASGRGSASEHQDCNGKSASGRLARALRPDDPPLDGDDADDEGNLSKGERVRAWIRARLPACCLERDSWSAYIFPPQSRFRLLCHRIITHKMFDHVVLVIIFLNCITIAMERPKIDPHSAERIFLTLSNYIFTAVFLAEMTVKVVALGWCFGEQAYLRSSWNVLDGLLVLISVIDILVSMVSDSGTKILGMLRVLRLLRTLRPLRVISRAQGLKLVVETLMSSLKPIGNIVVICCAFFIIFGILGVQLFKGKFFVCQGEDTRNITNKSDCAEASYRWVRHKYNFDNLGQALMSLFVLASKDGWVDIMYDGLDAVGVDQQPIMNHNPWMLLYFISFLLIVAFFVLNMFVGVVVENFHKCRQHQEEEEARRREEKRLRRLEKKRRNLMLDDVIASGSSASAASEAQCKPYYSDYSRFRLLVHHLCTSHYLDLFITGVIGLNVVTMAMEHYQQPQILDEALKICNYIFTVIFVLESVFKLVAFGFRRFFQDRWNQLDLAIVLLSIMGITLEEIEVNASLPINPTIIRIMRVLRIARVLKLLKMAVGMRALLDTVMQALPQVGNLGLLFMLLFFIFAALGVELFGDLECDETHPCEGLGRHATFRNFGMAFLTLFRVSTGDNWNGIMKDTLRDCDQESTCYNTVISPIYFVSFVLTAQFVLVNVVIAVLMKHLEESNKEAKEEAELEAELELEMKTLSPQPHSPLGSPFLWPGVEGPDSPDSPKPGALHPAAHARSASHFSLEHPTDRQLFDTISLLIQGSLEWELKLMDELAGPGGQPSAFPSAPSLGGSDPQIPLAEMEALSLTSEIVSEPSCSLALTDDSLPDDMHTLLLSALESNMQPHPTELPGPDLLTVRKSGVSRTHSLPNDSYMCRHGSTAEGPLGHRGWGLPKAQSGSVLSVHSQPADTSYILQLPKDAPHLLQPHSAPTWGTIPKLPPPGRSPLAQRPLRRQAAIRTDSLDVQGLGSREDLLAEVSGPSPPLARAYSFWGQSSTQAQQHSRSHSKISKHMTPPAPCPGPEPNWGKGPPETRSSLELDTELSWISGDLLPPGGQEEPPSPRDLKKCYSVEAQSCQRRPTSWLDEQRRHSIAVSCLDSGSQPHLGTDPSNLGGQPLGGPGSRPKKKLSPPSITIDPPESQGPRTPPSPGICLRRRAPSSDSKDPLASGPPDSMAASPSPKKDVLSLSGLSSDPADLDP
Structures can show the parent of a compound that is named as a salt.
# inhibition at 10 µM >= 50% gives YES, anything below gives NO

>>> assigned_label("CC1SC(=NC2CCCCCC2)N(C)C1CC(=O)Nc1ccccc1F.Cl (stereo not drawn) [KHG24640, hydrochloride]")
"NO"
>>> assigned_label("CCCCc1ccc(NC(=O)CC2CSC(=NC3CCCCC3)N2CCCC)cc1.Cl (stereo not drawn) [KHG24282, hydrochloride]")
"NO"
>>> assigned_label("CN1C(=NC2CCCCC2)SCC1CC(=O)Nc1cc(C(F)(F)F)cc(C(F)(F)F)c1 (stereo not drawn) [KHG24529, hydrochloride]")
"YES"
>>> assigned_label("CCCN1C(=NC23CC4CC(CC(C4)C2)C3)SCC1CC(=O)Nc1cc([N+](=O)[O-])ccc1F.Cl (stereo not drawn) [KHG24839, hydrochloride]")
"YES"
>>> assigned_label("CN1C(=NC2CCCCCC2)SCC1C(=O)NCc1ccc(Cl)c(Cl)c1.Cl (stereo not drawn) [KHG24338, hydrochloride]")
"YES"

Query :: Is inhibition at 10 µM at least 50%? Consider Cl.O=C(CC1CSC(=NC2CCCCC2)N1C1CC1)Nc1cc(Cl)ccc1F (stereo not drawn) [KHG24271, hydrochloride]
Result :: NO

Query :: Is inhibition at 10 µM at least 50%? Consider Cc1ccc(NC(=O)CC2CSC(=NC3CCCCC3)N2C2CCCCC2)cc1.Cl (stereo not drawn) [KHG24313, hydrochloride]
Result :: NO

Query :: Is inhibition at 10 µM at least 50%? Consider CCCCN1C(=NC2CCCCC2)SCC1CC(=O)Nc1ccc(Br)cc1.Cl (stereo not drawn) [KHG24263, hydrochloride]
Result :: YES

Query :: Is inhibition at 10 µM at least 50%? Consider CN1C(=NC2CCCCC2)SCC1CC(=O)Nc1cccc([N+](=O)[O-])c1.Cl (stereo not drawn) [KHG24108, hydrochloride]
Result :: NO
